Where do these numbers come from? They come from patent US7718673B2.

Biological target: Human αvβ3 (Homo sapiens, UniProt P05106+P06756)
Construct: purchased Chemicon International Inc., Temecula, Calif
Sequence (P06756 31-889 limits assumed, one chain of several): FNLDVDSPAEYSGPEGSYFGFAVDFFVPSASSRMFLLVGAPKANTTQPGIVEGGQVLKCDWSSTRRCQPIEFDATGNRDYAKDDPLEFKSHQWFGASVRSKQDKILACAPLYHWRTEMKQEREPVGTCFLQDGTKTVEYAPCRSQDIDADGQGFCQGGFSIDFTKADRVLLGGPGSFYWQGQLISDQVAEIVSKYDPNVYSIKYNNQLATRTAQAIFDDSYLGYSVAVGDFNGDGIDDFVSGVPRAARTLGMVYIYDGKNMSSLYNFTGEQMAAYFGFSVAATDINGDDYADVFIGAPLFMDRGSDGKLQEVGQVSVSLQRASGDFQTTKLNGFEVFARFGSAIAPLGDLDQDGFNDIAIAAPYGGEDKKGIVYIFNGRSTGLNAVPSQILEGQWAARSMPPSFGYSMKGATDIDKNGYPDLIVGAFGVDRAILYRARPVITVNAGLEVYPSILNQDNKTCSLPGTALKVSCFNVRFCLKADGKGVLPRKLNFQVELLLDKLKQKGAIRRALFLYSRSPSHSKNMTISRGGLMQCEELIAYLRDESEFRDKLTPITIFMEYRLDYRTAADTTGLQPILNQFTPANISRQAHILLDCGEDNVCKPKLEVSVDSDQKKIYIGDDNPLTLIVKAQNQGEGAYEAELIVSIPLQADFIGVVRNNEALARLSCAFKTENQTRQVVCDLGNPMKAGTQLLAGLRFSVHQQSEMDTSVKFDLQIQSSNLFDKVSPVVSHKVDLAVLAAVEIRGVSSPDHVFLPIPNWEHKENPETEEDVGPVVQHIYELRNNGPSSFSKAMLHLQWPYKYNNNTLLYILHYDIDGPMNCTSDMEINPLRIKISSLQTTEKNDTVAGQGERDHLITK
Sequence (P06756 891-1048 partner limits assumed, one chain of several): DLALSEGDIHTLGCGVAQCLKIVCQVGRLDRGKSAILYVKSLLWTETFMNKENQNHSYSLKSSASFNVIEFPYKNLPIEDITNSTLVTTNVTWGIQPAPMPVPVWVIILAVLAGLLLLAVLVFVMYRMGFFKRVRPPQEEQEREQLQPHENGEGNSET
Test: In vitro solid phase purified αvβ3 binding assay (vitronectin/αvβ3)
pIC50: −log10 of the molar value.
value_type: pIC50

sample_smiles	numeric_readout
O=C(O)C[C@H](NC(=O)C1CCN(C(=O)CCCNC2=NCCN2)CC1)c1cnc2ccccc2c1	8.43

###

Target: Human αvβ3 (Homo sapiens, UniProt P05106+P06756)
Construct: purchased Chemicon International Inc., Temecula, Calif
Test: In vitro solid phase purified αvβ3 binding assay (vitronectin/αvβ3)
Conditions: vitronectin binding to immobilized αvβ3; read-out: αvβ3 IC50
pIC50: −log10 of the molar value.
Each entry gets -1 if its pIC50 stays under 7, and 1 if its pIC50 is 7 or above.

compound	label_class
COC(=O)[C@H](CNC(=O)C1CCN(C(=O)C(C)CNC2=NCCN2)CC1)NC(=O)OCc1ccccc1 (stereo partly shown)	-1
CC(CCNC1=NCCN1)C(=O)N1CCC(C(=O)NC[C@H](NC(=O)OCc2ccccc2)C(=O)O)CC1 (stereo partly shown)	1
O=C(N[C@@H](CNC(=O)C1CCN(C(=O)[C@@H]2C=C[C@H](NC3=NCCN3)C2)CC1)C(=O)O)OCc1ccccc1	1
CC(CNC1=NCCN1)C(=O)N1CCC(C(=O)N[C@@H](CC(=O)O)c2cnc3ccccc3c2)CC1 (stereo partly shown)	1
O=C(N[C@@H](CNC(=O)C1CCN(C(=O)CCc2nc3ccccc3[nH]2)CC1)C(=O)O)OCc1ccccc1	-1
CC(CNC1=NCCN1)C(=O)N1CCC(C(=O)N[C@@H](CC(=O)O)c2cccnc2)CC1 (stereo partly shown)	-1
O=C(O)CC(NC(=O)C1CCN(C(=O)CCCNC2=NCCN2)CC1)c1cccc(C(F)(F)F)c1 (stereo not shown)	-1

###

Target: RGD-affinity purified GPIIb/IIIa (Homo sapiens, UniProt P05106+P08514)
Sequence (P08514 32-887 limits assumed): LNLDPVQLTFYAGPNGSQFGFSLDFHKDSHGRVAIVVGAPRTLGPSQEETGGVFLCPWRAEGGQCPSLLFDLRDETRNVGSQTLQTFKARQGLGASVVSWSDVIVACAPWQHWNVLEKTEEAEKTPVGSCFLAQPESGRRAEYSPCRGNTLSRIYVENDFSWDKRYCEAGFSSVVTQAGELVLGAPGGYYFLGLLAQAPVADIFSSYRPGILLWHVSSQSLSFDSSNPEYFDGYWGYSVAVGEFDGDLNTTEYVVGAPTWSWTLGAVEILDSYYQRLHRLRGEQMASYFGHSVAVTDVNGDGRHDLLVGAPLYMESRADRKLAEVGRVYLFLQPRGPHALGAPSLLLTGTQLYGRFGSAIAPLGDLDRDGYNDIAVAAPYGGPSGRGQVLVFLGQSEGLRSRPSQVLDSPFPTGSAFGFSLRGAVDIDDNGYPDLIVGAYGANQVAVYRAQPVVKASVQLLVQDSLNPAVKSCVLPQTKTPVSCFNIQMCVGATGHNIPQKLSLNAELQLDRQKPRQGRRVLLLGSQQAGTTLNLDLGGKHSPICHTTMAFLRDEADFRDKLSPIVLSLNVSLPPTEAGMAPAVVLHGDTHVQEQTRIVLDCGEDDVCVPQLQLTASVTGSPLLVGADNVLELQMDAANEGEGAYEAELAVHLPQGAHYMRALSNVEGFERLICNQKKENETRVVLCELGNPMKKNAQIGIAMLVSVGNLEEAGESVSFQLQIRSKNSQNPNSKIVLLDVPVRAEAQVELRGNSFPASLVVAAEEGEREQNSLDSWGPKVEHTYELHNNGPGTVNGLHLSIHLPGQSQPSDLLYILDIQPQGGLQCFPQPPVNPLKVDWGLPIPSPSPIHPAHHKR
Sequence (P08514 891-1039 partner limits assumed): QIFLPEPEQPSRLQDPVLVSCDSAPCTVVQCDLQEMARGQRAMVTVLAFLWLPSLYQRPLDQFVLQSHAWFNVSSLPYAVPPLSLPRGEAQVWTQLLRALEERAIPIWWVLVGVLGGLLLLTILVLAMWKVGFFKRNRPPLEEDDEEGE
Sequence (P05106 27-788): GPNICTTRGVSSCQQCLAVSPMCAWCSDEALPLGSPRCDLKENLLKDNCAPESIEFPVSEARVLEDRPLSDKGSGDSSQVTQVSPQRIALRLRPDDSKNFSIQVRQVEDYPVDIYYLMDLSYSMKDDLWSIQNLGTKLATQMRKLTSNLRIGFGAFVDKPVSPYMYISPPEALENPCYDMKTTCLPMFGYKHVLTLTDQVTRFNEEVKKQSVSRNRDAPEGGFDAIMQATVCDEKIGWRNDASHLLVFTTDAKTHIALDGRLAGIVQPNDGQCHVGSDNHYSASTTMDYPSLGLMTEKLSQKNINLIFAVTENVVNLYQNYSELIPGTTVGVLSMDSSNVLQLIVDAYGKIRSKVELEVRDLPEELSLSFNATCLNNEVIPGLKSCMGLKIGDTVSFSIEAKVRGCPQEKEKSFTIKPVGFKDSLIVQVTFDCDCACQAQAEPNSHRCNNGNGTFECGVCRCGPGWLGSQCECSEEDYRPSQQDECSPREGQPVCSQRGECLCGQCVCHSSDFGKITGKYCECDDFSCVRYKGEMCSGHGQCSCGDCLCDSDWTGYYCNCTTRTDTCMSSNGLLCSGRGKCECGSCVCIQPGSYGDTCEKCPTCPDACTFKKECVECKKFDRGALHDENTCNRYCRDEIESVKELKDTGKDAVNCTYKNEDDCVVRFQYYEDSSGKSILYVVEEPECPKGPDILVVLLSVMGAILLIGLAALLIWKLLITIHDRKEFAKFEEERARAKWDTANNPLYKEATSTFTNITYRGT
Test: In vitro solid phase purified GPIIb/IIIa binding assay (biotinylated fibrinogen)
Details: fibrinogen binding to immobilized GPIIb/IIIa; read-out: IIb/IIIa IC50
pIC50: −log10 of the molar value.
Recorded pIC50 determines the group label, using label 0: < 6; label 1: ≥ 6 and < 7; label 2: ≥ 7

molecule	target_or_system	label_class
CCN(CC)C(=O)COC(=O)CC(NC(=O)C1CCN(C(=O)CCCNC2=NCCN2)CC1)c1cnc2ccccc2c1 (centres unmarked)	RGD-affinity purified GPIIb/IIIa (Homo sapiens, UniProt P05106+P08514)	label 0
CC(CNC1=NCCN1)C(=O)N1CCC(C(=O)N[C@@H](CC(=O)O)c2cnc3ccccc3c2)CC1 (some centres unmarked)	RGD-affinity purified GPIIb/IIIa (Homo sapiens, UniProt P05106+P08514)	label 2
O=C(O)CC(NC(=O)C1CCN(C(=O)CCCNC2=NCCN2)CC1)c1ccsc1 (centres unmarked)	RGD-affinity purified GPIIb/IIIa (Homo sapiens, UniProt P05106+P08514)	label 0
O=C(O)CC(NC(=O)C1CCN(C(=O)CCc2nc3ccccc3[nH]2)CC1)c1cccc2ccccc12 (centres unmarked)	RGD-affinity purified GPIIb/IIIa (Homo sapiens, UniProt P05106+P08514)	label 0
O=C(N[C@@H](CNC(=O)C1CCN(C(=O)c2ccc(CNC3=NCCN3)cc2)CC1)C(=O)O)OCc1ccccc1	RGD-affinity purified GPIIb/IIIa (Homo sapiens, UniProt P05106+P08514)	label 2
CC(CNC1=NCCN1)C(=O)N1CCC(C(=O)N[C@@H](CC(=O)O)c2cccnc2)CC1 (some centres unmarked)	RGD-affinity purified GPIIb/IIIa (Homo sapiens, UniProt P05106+P08514)	label 0
O=C(O)C[C@H](NC(=O)C1CCN(C(=O)CCCNc2ccccn2)CC1)c1cccnc1	RGD-affinity purified GPIIb/IIIa (Homo sapiens, UniProt P05106+P08514)	label 0
O=C(O)C[C@H](NC(=O)C1CCN(C(=O)CCCNc2ccccn2)CC1)c1cnc2ccccc2c1	RGD-affinity purified GPIIb/IIIa (Homo sapiens, UniProt P05106+P08514)	label 1
NCCCC(=O)N1CCC(C(=O)NC[C@H](NC(=O)OCc2ccccc2)C(=O)O)CC1	RGD-affinity purified GPIIb/IIIa (Homo sapiens, UniProt P05106+P08514)	label 2
O=C(O)CC(NC(=O)C1CCN(C(=O)CCc2nc3ccccc3[nH]2)CC1)c1cnc2ccccc2c1 (centres unmarked)	RGD-affinity purified GPIIb/IIIa (Homo sapiens, UniProt P05106+P08514)	label 0
O=C(O)C[C@H](NC(=O)C1CCN(C(=O)CCCNC2=NCCN2)CC1)c1cnc2ccccc2c1	RGD-affinity purified GPIIb/IIIa (Homo sapiens, UniProt P05106+P08514)	label 2
O=C(N[C@@H](CNC(=O)C1CCN(C(=O)CCCNC2=NCCN2)CC1)C(=O)O)OCc1ccccc1	RGD-affinity purified GPIIb/IIIa (Homo sapiens, UniProt P05106+P08514)	label 2
O=C(O)CC(NC(=O)C1CCN(C(=O)OCCNC2=NCCN2)CC1)c1cccnc1 (centres unmarked)	RGD-affinity purified GPIIb/IIIa (Homo sapiens, UniProt P05106+P08514)	label 0
O=C(O)CC(NC(=O)C1CCN(C(=O)C2CCNCC2)CC1)c1cnc2ccccc2c1 (centres unmarked)	RGD-affinity purified GPIIb/IIIa (Homo sapiens, UniProt P05106+P08514)	label 1
O=C(N[C@@H](CNC(=O)C1CCN(C(=O)C2CCN(C3=NCCN3)CC2)CC1)C(=O)O)OCc1ccccc1	RGD-affinity purified GPIIb/IIIa (Homo sapiens, UniProt P05106+P08514)	label 2
O=C(N[C@@H](CNC(=O)C1CCN(C(=O)CCONC2=NCCN2)CC1)C(=O)O)OCc1ccccc1	RGD-affinity purified GPIIb/IIIa (Homo sapiens, UniProt P05106+P08514)	label 1
N=C(N)NOCCC(=O)N1CCC(C(=O)NC[C@H](NC(=O)OCc2ccccc2)C(=O)O)CC1	RGD-affinity purified GPIIb/IIIa (Homo sapiens, UniProt P05106+P08514)	label 1
O=C(N[C@@H](CNC(=O)C1CCN(C(=O)[C@H]2C=C[C@@H](NC3=NCCN3)C2)CC1)C(=O)O)OCc1ccccc1	RGD-affinity purified GPIIb/IIIa (Homo sapiens, UniProt P05106+P08514)	label 2
C=CC(N)CCC(=O)N1CCC(C(=O)NC[C@H](NC(=O)OCc2ccccc2)C(=O)O)CC1 (some centres unmarked)	RGD-affinity purified GPIIb/IIIa (Homo sapiens, UniProt P05106+P08514)	label 2

###

Target: Human αvβ3 (Homo sapiens, UniProt P05106+P06756)
Construct: purchased Chemicon International Inc., Temecula, Calif
Experiment: In vitro solid phase purified αvβ3 binding assay (vitronectin/αvβ3)
Conditions: vitronectin binding to immobilized αvβ3; read-out: αvβ3 IC50
pIC50: −log10 of the molar value.

molecule	target_or_system	censoring_qualifier	pIC50
O=C(O)CC(NC(=O)C1CCN(C(=O)CCCNc2ccccn2)CC1)c1ccc2c(c1)OCO2 (stereo not shown)	Human αvβ3 (Homo sapiens, UniProt P05106+P06756)	<	6.30
O=C(O)C[C@H](NC(=O)C1CCN(C(=O)OCCNC2=NCCN2)CC1)c1cnc2ccccc2c1	Human αvβ3 (Homo sapiens, UniProt P05106+P06756)	=	8.64
O=C(O)CC(NC(=O)C1CCN(C(=O)CCc2nc3ccccc3[nH]2)CC1)c1ccc2c(c1)OCCO2 (stereo not shown)	Human αvβ3 (Homo sapiens, UniProt P05106+P06756)	=	5.00
Cc1cccc(C(CC(=O)O)NC(=O)C2CCN(C(=O)CCCNC3=NCCN3)CC2)c1 (stereo not shown)	Human αvβ3 (Homo sapiens, UniProt P05106+P06756)	<	6.30
C=CC(CCC(=O)N1CCC(C(=O)NC[C@H](NC(=O)OCc2ccccc2)C(=O)O)CC1)NC1=NCCN1 (stereo partly shown)	Human αvβ3 (Homo sapiens, UniProt P05106+P06756)	=	7.41
O=C(O)C[C@H](NC(=O)C1CCN(C(=O)CCCNc2ccccn2)CC1)c1cccnc1	Human αvβ3 (Homo sapiens, UniProt P05106+P06756)	=	6.85
O=C(O)C[C@H](NC(=O)C1CCN(C(=O)CCCNC2=NCCN2)CC1)c1ccc(Cl)nc1	Human αvβ3 (Homo sapiens, UniProt P05106+P06756)	=	7.55
O=C(N[C@@H](CNC(=O)C1CCN(C(=O)NCCCn2ccnc2)CC1)C(=O)O)OCc1ccccc1	Human αvβ3 (Homo sapiens, UniProt P05106+P06756)	<	4.30
CC(CCNC1=NCCN1)C(=O)N1CCC(C(=O)N[C@@H](CC(=O)O)Cc2ccccc2)CC1 (stereo partly shown)	Human αvβ3 (Homo sapiens, UniProt P05106+P06756)	=	6.29
O=C(N[C@@H](CNC(=O)C1CCN(C(=O)OCCNC2=NCCN2)CC1)C(=O)O)OCc1ccccc1	Human αvβ3 (Homo sapiens, UniProt P05106+P06756)	=	8.09
O=C(O)CC(NC(=O)C1CCN(C(=O)CCc2nc3ccccc3[nH]2)CC1)c1cnc2ccccc2c1 (stereo not shown)	Human αvβ3 (Homo sapiens, UniProt P05106+P06756)	=	6.31
O=C(N[C@@H](CNC(=O)C1CCN(C(=O)[C@H]2C=C[C@@H](NC3=NCCN3)C2)CC1)C(=O)O)OCc1ccccc1	Human αvβ3 (Homo sapiens, UniProt P05106+P06756)	=	6.42
O=C(O)CC(NC(=O)C1CCN(C(=O)CCCNC2=NCCN2)CC1)c1ccc2ccccc2c1 (stereo not shown)	Human αvβ3 (Homo sapiens, UniProt P05106+P06756)	=	6.54
O=C(O)CC(NC(=O)C1CCN(C(=O)CCCNC2=NCCN2)CC1)c1ccc(F)c(F)c1 (stereo not shown)	Human αvβ3 (Homo sapiens, UniProt P05106+P06756)	=	6.64
O=C(O)CC(NC(=O)C1CCN(C(=O)CCCNC2=NCCN2)CC1)c1ccsc1 (stereo not shown)	Human αvβ3 (Homo sapiens, UniProt P05106+P06756)	=	6.28
COC(=O)C[C@H](NC(=O)C1CCN(C(=O)CCCNC2=NCCN2)CC1)c1cnc2ccccc2c1	Human αvβ3 (Homo sapiens, UniProt P05106+P06756)	=	7.55
